The origin of these recorded values is ChEMBL document CHEMBL2034887.

- assay_comment: Oral bioavailability in rat at 5 mg/kg
- Format: ADME, organism-based
- measurement_parameters: in vivo
metric_name: bioavailability (%)
Give bare numbers, in %.

Example entries and their recorded answers appear below.
compound_smiles: C[C@@H]1CCCN1CCCOc1ccc(C(=O)CN2CCN(C(=O)c3ccccc3)CC2)cc1
metric_name: bioavailability
assay_result: 14
//
compound_smiles: CCOC(=O)N1CCN(CC(=O)c2ccc(OCCCN3CCC[C@H]3C)cc2)CC1
metric_name: bioavailability
assay_result: 33
//
compound_smiles: C[C@@H]1CCCN1CCCOc1ccc(C(=O)CN2CCC(F)(F)CC2)cc1
metric_name: bioavailability
assay_result: 15

In the following, a different compound is considered.
`COC(=O)N1CCN(CC(=O)c2ccc(OCCCN3CCC[C@H]3C)cc2)CC1` has a reported bioavailability of 22

---

- assay_comment: Volume of distribution in rat at […], iv
- Type: ADME, organism-based
- measurement_parameters: in vivo
metric_name: Vd (L/kg)
Give bare numbers, in L/kg.

Example entries and their recorded answers appear below.
compound_smiles: C[C@@H]1CCCN1CCCOc1ccc(C(=O)CN2CCN(C(=O)c3ccccc3)CC2)cc1
metric_name: Vd
assay_result: 1.4
//
compound_smiles: C[C@@H]1CCCN1CCCOc1ccc(C(=O)CN2CCOCC2)cc1
metric_name: Vd
assay_result: 27
//
compound_smiles: CCOC(=O)N1CCN(CC(=O)c2ccc(OCCCN3CCC[C@H]3C)cc2)CC1
metric_name: Vd
assay_result: 2.8
//
compound_smiles: C[C@@H]1CCCN1CCCOc1ccc(C(=O)CN2CCC(F)(F)CC2)cc1
metric_name: Vd
assay_result: 2.2

In the following, a different compound is considered.
`COC(=O)N1CCN(CC(=O)c2ccc(OCCCN3CCC[C@H]3C)cc2)CC1` has a reported Vd of 5.4

---

- system_tested: Cytochrome P450 2C19 (Homo sapiens, UniProt P33261)
pIC50: −log10 of the molar value.
metric_name: pIC50

compound_smiles: COC(=O)N1CCN(CC(=O)c2ccc(OCCCN3CCC[C@H]3C)cc2)CC1
assay_result: < 4.52

`C[C@@H]1CCCN1CCCOc1ccc(C(=O)CN2CCC(F)(F)CC2)cc1` has a reported pIC50 of < 4.52

---

Provide the reported half-life of each item.
- assay_comment: Half life in rat liver microsomes
- Type: ADME, Microsome

Example entries and their recorded answers appear below.
compound_smiles: C[C@@H]1CCCN1CCCOc1ccc(C(=O)CN2CCN(C(=O)c3ccccc3)CC2)cc1
assay_result: > 40 min
--
compound_smiles: C[C@@H]1CCCN1CCCOc1ccc(C(=O)CN2CCOCC2)cc1
assay_result: > 40 min

In the following, a different compound is considered.
`COC(=O)N1CCN(CC(=O)c2ccc(OCCCN3CCC[C@H]3C)cc2)CC1` has a reported half-life of > 40 min

---

Provide the reported IC50 of each item.
Protein target, amino acids: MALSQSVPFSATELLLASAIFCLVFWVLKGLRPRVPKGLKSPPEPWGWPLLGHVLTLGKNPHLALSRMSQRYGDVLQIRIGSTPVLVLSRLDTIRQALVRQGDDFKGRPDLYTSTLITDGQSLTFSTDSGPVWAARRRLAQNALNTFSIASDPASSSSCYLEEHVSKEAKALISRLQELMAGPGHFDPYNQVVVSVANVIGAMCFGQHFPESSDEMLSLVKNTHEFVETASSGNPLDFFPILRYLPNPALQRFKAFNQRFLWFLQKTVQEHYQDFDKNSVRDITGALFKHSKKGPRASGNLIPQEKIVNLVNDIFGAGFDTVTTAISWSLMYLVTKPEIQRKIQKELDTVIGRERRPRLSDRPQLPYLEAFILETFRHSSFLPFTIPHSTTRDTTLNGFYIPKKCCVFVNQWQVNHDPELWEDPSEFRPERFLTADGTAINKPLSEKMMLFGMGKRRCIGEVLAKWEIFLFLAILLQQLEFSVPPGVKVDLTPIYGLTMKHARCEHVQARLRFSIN

compound_smiles: COC(=O)N1CCN(CC(=O)c2ccc(OCCCN3CCC[C@H]3C)cc2)CC1
IC50: > 30 µM

In the following, a different compound is considered.
`C[C@@H]1CCCN1CCCOc1ccc(C(=O)CN2CCC(F)(F)CC2)cc1` has a reported IC50 of > 30 µM

---

- system_tested: CYP2C19 (Homo sapiens, UniProt P33261)
- Sequence (P33261 whole entry): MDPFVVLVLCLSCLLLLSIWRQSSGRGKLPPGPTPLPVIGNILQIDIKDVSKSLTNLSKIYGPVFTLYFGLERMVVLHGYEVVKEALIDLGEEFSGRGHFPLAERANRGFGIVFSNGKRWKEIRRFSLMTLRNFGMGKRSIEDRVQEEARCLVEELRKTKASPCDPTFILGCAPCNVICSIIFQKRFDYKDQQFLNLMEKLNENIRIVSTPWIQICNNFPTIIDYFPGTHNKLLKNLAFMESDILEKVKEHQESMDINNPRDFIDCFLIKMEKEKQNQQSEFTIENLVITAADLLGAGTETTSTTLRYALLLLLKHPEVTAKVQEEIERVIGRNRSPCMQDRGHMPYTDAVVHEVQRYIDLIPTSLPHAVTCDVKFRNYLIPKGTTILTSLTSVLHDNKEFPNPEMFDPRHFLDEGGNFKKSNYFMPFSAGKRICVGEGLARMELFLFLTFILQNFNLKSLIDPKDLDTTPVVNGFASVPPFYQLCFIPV
- assay_comment: Inhibition of CYP2C19
- Type: ADME
pIC50: −log10 of the molar value.
metric_name: pIC50

`C[C@@H]1CCCN1CCCOc1ccc(C(=O)CN2CCOCC2)cc1` has a reported pIC50 of < 4.52

---

- system_tested: Histamine H3 receptor (Homo sapiens, UniProt Q9Y5N1)
- Sequence (Q9Y5N1 whole entry): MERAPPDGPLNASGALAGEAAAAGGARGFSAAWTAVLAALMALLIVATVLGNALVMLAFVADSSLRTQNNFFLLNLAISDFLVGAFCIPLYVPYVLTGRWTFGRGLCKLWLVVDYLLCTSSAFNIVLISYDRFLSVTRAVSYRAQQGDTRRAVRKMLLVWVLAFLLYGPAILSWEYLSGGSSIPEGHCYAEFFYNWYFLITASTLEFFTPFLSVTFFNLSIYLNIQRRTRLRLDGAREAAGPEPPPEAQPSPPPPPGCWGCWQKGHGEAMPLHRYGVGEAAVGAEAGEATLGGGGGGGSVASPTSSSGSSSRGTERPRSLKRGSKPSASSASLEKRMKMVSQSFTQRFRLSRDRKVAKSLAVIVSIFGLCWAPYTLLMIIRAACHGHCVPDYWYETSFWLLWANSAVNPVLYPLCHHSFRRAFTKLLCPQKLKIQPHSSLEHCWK
- assay_comment: Inverse agonist activity at human histamine H3 receptor by [35S]-GTPgammaS binding assay
Provide the reported pEC50 of each item.
Give bare numbers, as −log10 of the molar value.

compound_smiles: C[C@@H]1CCCN1CCCOc1ccc(C(=O)CN2CCC(F)(F)CC2)cc1
pEC50: 8.74

Could you report pEC50 for every entry in the following list?
1. C[C@@H]1CCCN1CCCOc1ccc(C(=O)CN2CCN(C(=O)c3ccccc3)CC2)cc1
2. COC(=O)N1CCN(CC(=O)c2ccc(OCCCN3CCC[C@H]3C)cc2)CC1

-- reply
[9.00, 9.05]

---

- assay_comment: Half life in rat at […], iv
- Assay type: ADME, organism-based
- measurement_parameters: in vivo
Please mark rule met if the recorded half-life is equal to or greater than 1 h, and rule not met if it falls below.

Examples from the recorded data:
compound_smiles: C[C@@H]1CCCN1CCCOc1ccc(C(=O)CN2CCC(F)(F)CC2)cc1
assigned_label: rule not met

compound_smiles: C[C@@H]1CCCN1CCCOc1ccc(C(=O)CN2CCN(C(=O)c3ccccc3)CC2)cc1
assigned_label: rule met

compound_smiles: C[C@@H]1CCCN1CCCOc1ccc(C(=O)CN2CCOCC2)cc1
assigned_label: rule met

compound_smiles: CCOC(=O)N1CCN(CC(=O)c2ccc(OCCCN3CCC[C@H]3C)cc2)CC1
assigned_label: rule met

We next turn to a different molecule, shown below.
-- ask Test whether the molecule `COC(=O)N1CCN(CC(=O)c2ccc(OCCCN3CCC[C@H]3C)cc2)CC1` records half-life of 1 h or higher.
-- reply rule met

---

Parameter 'readout' = IC50; parameter 'system' = Cytochrome P450 2D6 (Homo sapiens, UniProt P10635).
Sequence (P10635 whole entry): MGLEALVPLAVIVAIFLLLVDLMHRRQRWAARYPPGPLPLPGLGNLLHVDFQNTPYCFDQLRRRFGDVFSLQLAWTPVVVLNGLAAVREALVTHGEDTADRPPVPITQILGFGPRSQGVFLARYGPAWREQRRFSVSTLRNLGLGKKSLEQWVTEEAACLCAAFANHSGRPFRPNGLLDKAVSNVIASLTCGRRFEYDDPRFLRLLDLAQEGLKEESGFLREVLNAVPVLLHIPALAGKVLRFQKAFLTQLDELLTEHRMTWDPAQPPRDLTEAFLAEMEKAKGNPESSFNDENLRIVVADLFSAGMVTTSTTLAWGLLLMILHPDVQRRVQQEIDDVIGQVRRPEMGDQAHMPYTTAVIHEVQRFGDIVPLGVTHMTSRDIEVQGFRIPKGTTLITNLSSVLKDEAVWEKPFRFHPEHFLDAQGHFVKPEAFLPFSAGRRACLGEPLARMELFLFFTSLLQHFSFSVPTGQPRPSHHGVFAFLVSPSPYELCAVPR

compound_smiles: C[C@@H]1CCCN1CCCOc1ccc(C(=O)CN2CCC(F)(F)CC2)cc1
IC50: > 30 µM
--
compound_smiles: CCOC(=O)N1CCN(CC(=O)c2ccc(OCCCN3CCC[C@H]3C)cc2)CC1
IC50: 5 µM

`C[C@@H]1CCCN1CCCOc1ccc(C(=O)CN2CCN(C(=O)c3ccccc3)CC2)cc1` has a reported IC50 of > 30 µM

---

Provide the reported half-life of each item.
- assay_comment: Half life in mouse liver microsomes
- Format: ADME, Microsome

compound_smiles: C[C@@H]1CCCN1CCCOc1ccc(C(=O)CN2CCN(C(=O)c3ccccc3)CC2)cc1
metric_name: half-life
assay_result: > 40 min

Could you report half-life for every entry in the following list?
1. C[C@@H]1CCCN1CCCOc1ccc(C(=O)CN2CCOCC2)cc1
2. COC(=O)N1CCN(CC(=O)c2ccc(OCCCN3CCC[C@H]3C)cc2)CC1

-- reply
> 40 min
> 40 min

---

Provide the reported pKi of each item.
- system_tested: Histamine H3 receptor (Rattus norvegicus, UniProt Q9QYN8)
- Sequence (Q9QYN8 whole entry): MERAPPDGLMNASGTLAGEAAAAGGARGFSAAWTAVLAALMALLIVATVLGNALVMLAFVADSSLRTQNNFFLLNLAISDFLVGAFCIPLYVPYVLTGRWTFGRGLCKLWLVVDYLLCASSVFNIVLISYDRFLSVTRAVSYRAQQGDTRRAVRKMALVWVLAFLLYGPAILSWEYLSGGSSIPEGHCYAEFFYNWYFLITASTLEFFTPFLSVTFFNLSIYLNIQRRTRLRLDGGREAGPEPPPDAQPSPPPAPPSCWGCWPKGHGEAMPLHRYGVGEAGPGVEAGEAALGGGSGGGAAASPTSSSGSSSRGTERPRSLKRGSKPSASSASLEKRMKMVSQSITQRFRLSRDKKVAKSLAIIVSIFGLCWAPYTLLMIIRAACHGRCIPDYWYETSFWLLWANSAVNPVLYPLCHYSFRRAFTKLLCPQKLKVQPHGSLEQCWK
One number for each entry, as −log10 of the molar value.

Example entries and their recorded answers appear below.
compound_smiles: C[C@@H]1CCCN1CCCOc1ccc(C(=O)CN2CCN(C(=O)Oc3ccccc3)CC2)cc1
assay_result: 8.16

compound_smiles: C[C@@H]1CCCN1CCCOc1ccc(C(=O)CN2CCC(C#N)CC2)cc1
assay_result: 7.64

compound_smiles: C[C@@H]1CCCN1CCCOc1ccc(C(=O)CN2CCN(C(=O)c3cccn3C)CC2)cc1
assay_result: 8.03

compound_smiles: C[C@@H]1CCCN1CCCOc1ccc(C(=O)CN2CCN(C(=O)Oc3ccc(F)cc3)CC2)cc1
assay_result: 8.43

compound_smiles: C[C@@H]1CCCN1CCCOc1ccc(C(=O)CN2CCC(C(F)(F)F)CC2)cc1
assay_result: 8.04

Could you report pKi for every entry in the following list?
1. C[C@@H]1CCCN1CCCOc1ccc(C(=O)CN2CCN(S(C)(=O)=O)CC2)cc1
2. C[C@@H]1CCCN1CCCOc1ccc(C(=O)CN2CCN(C(=O)c3ccc(F)cc3)CC2)cc1
3. C[C@@H]1CCCN1CCCOc1ccc(C(=O)CN2CCN(C(=O)c3cc4ccccc4s3)CC2)cc1
4. CCOC(=O)N1CCN(CC(=O)c2ccc(OCCCN3CCC[C@H]3C)cc2)CC1
5. C[C@@H]1CCCN1CCCOc1ccc(C(=O)CN2CCN(C(=O)C(F)(F)F)CC2)cc1

-- reply
1. 7.59
2. 8.24
3. 8.40
4. 7.64
5. 7.77
